# credit: patent US6022873A

system: human fibroblast collagenase (Homo sapiens, UniProt P03956)
Sequence (P03956 100-469): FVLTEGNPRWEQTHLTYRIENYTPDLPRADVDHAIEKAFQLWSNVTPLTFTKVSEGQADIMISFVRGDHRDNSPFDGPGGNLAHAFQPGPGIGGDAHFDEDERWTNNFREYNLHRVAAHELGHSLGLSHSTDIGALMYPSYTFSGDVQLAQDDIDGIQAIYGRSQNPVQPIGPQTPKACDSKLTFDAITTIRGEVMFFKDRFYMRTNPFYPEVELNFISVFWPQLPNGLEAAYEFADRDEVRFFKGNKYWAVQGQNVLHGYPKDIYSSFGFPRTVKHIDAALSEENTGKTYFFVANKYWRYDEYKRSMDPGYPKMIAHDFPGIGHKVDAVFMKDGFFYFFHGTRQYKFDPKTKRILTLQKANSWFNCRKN
pIC50: −log10 of the molar value.
metric: pIC50

Bench note: what pIC50 did COc1ccc(S(=O)(=O)NCC[C@H](C(=O)NO)[C@@H](CC(C)C)C(=O)N2CCCCC2)cc1 show? ~7.30
